target: hGPR17L-G354V (Homo sapiens, UniProt Q13304, G354V); construct: expressed in transfected cells; host or cells: HEK293 (ATCC CRL-1573); experiment: GloSensor stimulatory cAMP assay with pertussis toxin pretreatment; format: cell-based; conditions: read-out: Stimulatory cAMP EC50
Sequence (Q13304 whole entry G354V): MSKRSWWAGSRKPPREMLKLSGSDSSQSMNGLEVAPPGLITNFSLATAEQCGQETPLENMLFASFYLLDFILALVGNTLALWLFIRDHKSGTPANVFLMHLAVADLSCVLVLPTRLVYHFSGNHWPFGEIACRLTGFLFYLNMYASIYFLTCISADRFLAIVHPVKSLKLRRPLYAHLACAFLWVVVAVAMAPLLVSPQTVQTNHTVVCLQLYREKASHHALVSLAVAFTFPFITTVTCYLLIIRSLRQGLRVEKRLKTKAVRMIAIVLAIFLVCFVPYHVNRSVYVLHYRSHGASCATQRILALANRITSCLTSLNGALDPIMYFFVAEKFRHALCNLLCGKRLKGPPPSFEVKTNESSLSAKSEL
measured-metric: pEC50
Answers are plain numbers, as −log10 of the molar value.

Item O=C(O)CCc1c(C(=O)O)[nH]c2cc(Cl)cc(Cl)c12 has what recorded pEC50?
4.85

###

target: hGPR17L-WT (Homo sapiens, UniProt Q13304); construct: expressed in transfected cells; host or cells: HEK293 (ATCC CRL-1573), transient transfection of pcDNA3-HA-hGPR17L; assay: Calcium flux assay; format: cell-based; conditions: read-out: Ca2+ EC50; hGPR17L-WT; HEK293; calcium mobilization
Sequence (Q13304 whole entry): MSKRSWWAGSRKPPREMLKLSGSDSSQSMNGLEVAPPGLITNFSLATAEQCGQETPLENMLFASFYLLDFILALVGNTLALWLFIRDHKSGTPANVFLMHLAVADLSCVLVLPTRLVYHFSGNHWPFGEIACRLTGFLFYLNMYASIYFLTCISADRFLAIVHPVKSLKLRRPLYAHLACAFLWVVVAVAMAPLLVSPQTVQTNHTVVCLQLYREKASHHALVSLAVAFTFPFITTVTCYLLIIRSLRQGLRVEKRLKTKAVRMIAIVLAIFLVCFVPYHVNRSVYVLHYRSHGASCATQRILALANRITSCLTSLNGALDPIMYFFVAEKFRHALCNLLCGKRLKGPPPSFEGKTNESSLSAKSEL
measured-metric: pEC50
One number for each entry, as −log10 of the molar value.

Item O=C(O)CCc1c(C(=O)O)[nH]c2cc(Cl)cc(Cl)c12 [MDL29,951] has what recorded pEC50?
7.09
